molecular target: Kras and SOS1 (biotin-tagged human Kras loaded with GDP, His-tagged human SOS1) (Homo sapiens, UniProt P01116, G12D); construct: made in house; host or cells: E. coli (stated for Kras only); test: Protein-protein interaction inhibition between Kras and SOS1 (KrasGl2D-SOS PPI) using AlphaScreen; assay type: binding; settings: AlphaScreen; biotin-tagged human Kras loaded with GDP, His-tagged human SOS1; read-out: KRAS G12D-SOS PPI IC50
Sequence (P01116 1-188 isoform P01116-2 G12D): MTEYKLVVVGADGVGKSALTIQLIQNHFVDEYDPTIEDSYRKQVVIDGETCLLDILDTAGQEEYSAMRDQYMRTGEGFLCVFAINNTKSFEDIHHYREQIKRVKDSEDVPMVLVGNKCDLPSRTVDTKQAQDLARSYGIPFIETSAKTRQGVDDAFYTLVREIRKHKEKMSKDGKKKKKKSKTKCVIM
Starred links: 1 amine or outer side, 2 acyl side, 3 side chain; linkers in the order of their positions; H or OH if unused. Positions of bridges follow the written chain, without caps; N, C: chain ends. Non-standard residues stand in square brackets, D forms with d. Residues, ends and D or L forms follow the SMILES beside them. *: point of attachment. hPhe(3-Cl-4-CF3) = N[C@@H](CCc1ccc(C(F)(F)F)c(Cl)c1)C(=O)O; NMedβ3hAla = C[C@H](CC(=O)[*:2])N(C)[*:1]; NMeGly(cPent) = CN[C@H](C(=O)O)C1CCCC1; NMeCha = CN[C@@H](CC1CCCCC1)C(=O)O; NMeD = CN[C@@H](CC(=O)O)C(=O)O; NMeL = CN[C@@H](CC(C)C)C(=O)O; NMeV = CN[C@H](C(=O)O)C(C)C; NMeS = CN[C@@H](CO)C(=O)O; Iva = CC[C@](C)(N)C(=O)O; Morpholide = C1CN(*)CCO1; NMeA = CN[C@@H](C)C(=O)O; Ac5c = NC1(C(=O)O)CCCC1; Aze = O=C(O)[C@@H]1CCN1; Sar = CNCC(=O)O; Propyl = CCC*
measurement type: pIC50
By convention, pIC50 is the negative base-10 log of a molar concentration.

CCCOC[C@H]1C(=O)N(C)CC(=O)N[C@@H](CCc2ccc(C(F)(F)F)c(Cl)c2)C(=O)N2CCC[C@H]2C(=O)NC2(CCCC2)C(=O)N(C)[C@@H](C2CCCC2)C(=O)N(C)[C@H](C(=O)N2CCOCC2)CC(=O)N(C)[C@@H](CC(C)C)C(=O)N[C@@H]([C@@H](C)CC)C(=O)N(C)[C@@H](C)C(=O)N2CC[C@H]2C(=O)N1C [Compound 974] ([NMeL]I[NMeA][Aze][NMeS](Propyl)[Sar][hPhe(3-Cl-4-CF3)]P[Ac5c][NMeGly(cPent)][NMeD]-Morpholide; lactam N-11): 9.04

# next compound below
Input line: For the compound CC[C@H](C)[C@@H]1NC(=O)[C@H](CC(C)C)N(C)C(=O)C[C@@H](C)N(C)C(=O)[C@H](C(C)C)N(C)C(=O)[C@](C)(CC)NC(=O)[C@@H]2CCCN2C(=O)[C@H](CCc2ccc(C(F)(F)F)c(Cl)c2)NC(=O)CN(C)C(=O)[C@H](CC2CCCCC2)N(C)C(=O)CN(C)C(=O)CN(C)C1=O [Compound 944] (cyclo(I[Sar][Sar][NMeCha][Sar][hPhe(3-Cl-4-CF3)]P[Iva][NMeV][NMedβ3hAla][NMeL])) , report pIC50.
Output line: 7.74
